Origin of measurements: PubChem BioAssay (NCI)

- Test system: SK-OV-3 ovarian
- ASSAY COMMENT: NCI tumour cell line growth inhibition, 48 h
Catalogue of TGI readings, one per entry.

Study these solved cases before continuing.
{"COMPOUND": "CCN(CCCl)c1cccc(NC(=O)c2ccc(C(=O)Nc3cccc(CN(C)C)c3)cc2)c1", "MEASURED ON": "SK-OV-3 ovarian", "RESULT": "4.13 µM"}
{"COMPOUND": "CC(=O)Nc1ccc(/C=C2/NC(=S)N(/C=C3\\C(=O)Oc4ccccc4C3=O)C2=O)cc1", "MEASURED ON": "SK-OV-3 ovarian", "RESULT": "> 100 µM"}
{"COMPOUND": "CC(=O)O[C@H]1CCC2[C@@H]3CCC4NC(=O)C(C#N)C[C@]4(C)C3CC[C@@]21C (stereo not given in full)", "MEASURED ON": "SK-OV-3 ovarian", "RESULT": "> 10 µM"}

Here is the next item to consider.
Lab note: measured TGI of COC(=O)C(=O)C(C(=O)C(N)=O)c1nc2ccc(C(=O)c3ccccc3)cc2[nH]c1=O (stereo not given) was > 100 µM
